Numbers sourced from ChEMBL document CHEMBL1134878.

Hi there, I'd appreciate the recorded pIC50 for every entry that follows.
molecular target: Voltage-dependent N-type calcium channel subunit alpha-1B (Homo sapiens, UniProt Q00975); assay: In vitro inhibition of N-type calcium channel influx in IMR-32 human neuroblastoma cells
Sequence (Q00975 whole entry): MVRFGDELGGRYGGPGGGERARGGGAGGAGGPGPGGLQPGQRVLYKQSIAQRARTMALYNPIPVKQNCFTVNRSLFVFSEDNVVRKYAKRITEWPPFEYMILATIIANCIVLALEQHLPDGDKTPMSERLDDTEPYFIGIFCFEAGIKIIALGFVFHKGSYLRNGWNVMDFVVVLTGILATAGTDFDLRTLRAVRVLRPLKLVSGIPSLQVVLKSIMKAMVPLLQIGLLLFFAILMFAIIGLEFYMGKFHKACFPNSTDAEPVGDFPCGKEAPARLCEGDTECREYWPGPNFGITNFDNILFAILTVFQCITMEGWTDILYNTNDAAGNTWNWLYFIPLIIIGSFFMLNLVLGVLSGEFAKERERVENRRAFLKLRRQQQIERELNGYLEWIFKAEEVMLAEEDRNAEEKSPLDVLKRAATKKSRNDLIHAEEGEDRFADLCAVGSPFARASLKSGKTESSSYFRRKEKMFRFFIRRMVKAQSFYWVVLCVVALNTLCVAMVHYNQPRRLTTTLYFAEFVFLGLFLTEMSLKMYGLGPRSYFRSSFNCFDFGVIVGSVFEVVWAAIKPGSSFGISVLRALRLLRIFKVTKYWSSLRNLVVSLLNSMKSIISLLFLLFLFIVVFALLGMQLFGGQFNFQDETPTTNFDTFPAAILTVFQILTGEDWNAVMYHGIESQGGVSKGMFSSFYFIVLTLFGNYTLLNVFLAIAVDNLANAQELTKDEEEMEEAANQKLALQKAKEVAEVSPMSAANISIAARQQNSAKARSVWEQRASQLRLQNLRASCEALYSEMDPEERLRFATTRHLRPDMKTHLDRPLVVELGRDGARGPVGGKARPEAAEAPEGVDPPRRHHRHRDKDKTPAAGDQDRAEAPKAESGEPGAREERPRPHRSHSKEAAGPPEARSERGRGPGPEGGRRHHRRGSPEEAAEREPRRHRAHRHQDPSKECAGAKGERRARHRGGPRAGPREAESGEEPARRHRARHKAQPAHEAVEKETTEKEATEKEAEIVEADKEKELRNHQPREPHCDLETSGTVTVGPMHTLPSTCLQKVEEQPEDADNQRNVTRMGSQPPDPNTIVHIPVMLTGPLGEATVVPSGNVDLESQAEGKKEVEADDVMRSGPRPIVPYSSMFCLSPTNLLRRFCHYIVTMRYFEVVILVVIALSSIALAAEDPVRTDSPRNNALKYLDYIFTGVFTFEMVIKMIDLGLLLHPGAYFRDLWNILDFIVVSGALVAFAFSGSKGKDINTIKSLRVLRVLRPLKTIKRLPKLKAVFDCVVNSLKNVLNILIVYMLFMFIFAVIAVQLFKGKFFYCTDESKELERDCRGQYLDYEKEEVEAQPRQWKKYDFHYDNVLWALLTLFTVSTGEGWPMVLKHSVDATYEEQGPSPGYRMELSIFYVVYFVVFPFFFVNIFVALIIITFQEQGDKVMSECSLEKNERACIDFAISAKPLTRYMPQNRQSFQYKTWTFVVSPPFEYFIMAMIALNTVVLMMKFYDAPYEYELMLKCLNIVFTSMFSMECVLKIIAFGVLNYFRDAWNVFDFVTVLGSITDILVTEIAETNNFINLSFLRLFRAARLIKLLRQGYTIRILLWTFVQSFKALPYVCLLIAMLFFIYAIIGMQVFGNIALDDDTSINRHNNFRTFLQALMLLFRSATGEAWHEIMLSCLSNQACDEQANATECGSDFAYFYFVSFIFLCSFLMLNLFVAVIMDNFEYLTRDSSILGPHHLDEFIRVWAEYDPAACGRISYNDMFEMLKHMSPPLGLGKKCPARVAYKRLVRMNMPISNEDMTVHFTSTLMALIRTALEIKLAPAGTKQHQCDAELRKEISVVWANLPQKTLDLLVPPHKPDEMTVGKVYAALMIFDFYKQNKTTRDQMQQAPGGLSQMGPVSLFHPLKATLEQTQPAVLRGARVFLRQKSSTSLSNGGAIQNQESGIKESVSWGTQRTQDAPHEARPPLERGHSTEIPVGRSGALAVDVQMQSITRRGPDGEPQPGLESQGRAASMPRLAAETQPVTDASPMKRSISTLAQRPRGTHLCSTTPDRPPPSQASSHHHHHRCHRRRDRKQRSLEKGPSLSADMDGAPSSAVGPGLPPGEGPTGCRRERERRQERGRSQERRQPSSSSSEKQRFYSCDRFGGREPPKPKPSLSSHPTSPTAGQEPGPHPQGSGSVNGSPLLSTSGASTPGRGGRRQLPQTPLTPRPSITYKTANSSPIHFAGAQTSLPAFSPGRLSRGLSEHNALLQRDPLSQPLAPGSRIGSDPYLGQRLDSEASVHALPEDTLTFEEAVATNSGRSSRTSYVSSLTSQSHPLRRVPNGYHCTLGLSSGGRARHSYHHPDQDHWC
One number for each entry, as −log10 of the molar value.

// below: answered compounds
# smi, pIC50
data = [
    ("CC(C)(C)OC(=O)N1CSC[C@H]1C(=O)N[C@@H](CSCC1CCCCC1)C(=O)NCCNCc1ccccc1", 6.42),
    ("CC(C)(C)OC(=O)N1CSC[C@H]1C(=O)N[C@@H](CSCC1CCCCC1)C(=O)N1CCN(c2ccccc2)CC1", 6.41),
]

Now consider a different compound.
Task: Reported pIC50 for CC(C)(C)OC(=O)N1CSC[C@H]1C(=O)N[C@@H](CSCC1CCCCC1)C(=O)N1CCC(NCc2ccccc2)CC1 : what is it?
Output: 6.30
